# test-description: Half-lives of hydrolysis of the prodrugs in human serum
# test-conditions: Half-life of hydrolysis, Serum, bis to mono
readout-name: half-life (h)

* Nc1nc2c(ncn2COCCOC(=O)COCC(=O)OCCOCn2cnc3c(=O)[nH]c(N)nc32)c(=O)[nH]1 | 4

====

# test-description: Half-lives of hydrolysis of the prodrugs in human serum
readout-name: half-life (min)

- CC[C@@]1(OC(=O)COCC(=O)OCCOCCN(C)C)C(=O)OCc2c1cc1n(c2=O)Cc2cc3ccccc3nc2-1: 40
- COCCOCCOCC(=O)Oc1cc(/C=C\c2cc(OC)c(OC)c(OC)c2)ccc1OC: 2
- CC[C@@]1(OC(=O)COCC(=O)OC)C(=O)OCc2c1cc1n(c2=O)Cc2cc3ccccc3nc2-1: 2
